Target: human URAT1 (Homo sapiens, UniProt Q96S37)
Construct: Full-length cDNA of human URAT1 (hURAT1)
Sequence (Q96S37 1-553): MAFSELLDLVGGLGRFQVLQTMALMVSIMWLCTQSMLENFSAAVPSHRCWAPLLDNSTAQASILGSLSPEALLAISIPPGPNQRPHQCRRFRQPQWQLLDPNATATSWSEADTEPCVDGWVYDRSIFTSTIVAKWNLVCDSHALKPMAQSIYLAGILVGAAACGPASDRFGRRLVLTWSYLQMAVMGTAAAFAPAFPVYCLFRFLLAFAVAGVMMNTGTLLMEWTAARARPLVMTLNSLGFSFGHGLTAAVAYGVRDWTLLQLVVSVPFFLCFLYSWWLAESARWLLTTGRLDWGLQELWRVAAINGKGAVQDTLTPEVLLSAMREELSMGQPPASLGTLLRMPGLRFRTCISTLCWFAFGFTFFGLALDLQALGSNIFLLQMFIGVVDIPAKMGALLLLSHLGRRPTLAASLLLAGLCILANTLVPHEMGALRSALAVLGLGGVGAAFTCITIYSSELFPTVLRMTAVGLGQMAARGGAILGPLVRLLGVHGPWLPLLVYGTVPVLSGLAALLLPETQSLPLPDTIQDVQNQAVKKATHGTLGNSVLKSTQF
Assay: Test for inhibition of uric acid transport using human URAT1-expressing cells
Details: HEK 293 cells expressing human URAT1; 14C-labeled uric acid 25 μM; uptake 37° C. for 5 min; read-out: IC50 (concentration of the compound at which the uric acid transport rate is inhibited by 50%)
pIC50: −log10 of the molar value.
metric: pIC50

// pIC50 lookup, key: `Cc1nc(-c2cncc(Cl)c2)n(Cc2cc(Cl)ccc2Cl)c1C(=O)O`
≥ 6.70
